// provenance: patent US9751842B2

Measured pIC50, listed per entry for reference.
target: GST-tagged Tankyrase-2 (873-1166 aa) (Homo sapiens, UniProt Q9H2K2); construct: GST-tagged Tankyrase-2 (873-1166 aa); test: Tankyrase 2 autoparsylation HTRF enzyme assay; assay type: biochemical; settings: HTRF autoparsylation, 90 min at 30° C; read-out: IC50 TNKS2 enzyme assay
Sequence (Q9H2K2 873-1166): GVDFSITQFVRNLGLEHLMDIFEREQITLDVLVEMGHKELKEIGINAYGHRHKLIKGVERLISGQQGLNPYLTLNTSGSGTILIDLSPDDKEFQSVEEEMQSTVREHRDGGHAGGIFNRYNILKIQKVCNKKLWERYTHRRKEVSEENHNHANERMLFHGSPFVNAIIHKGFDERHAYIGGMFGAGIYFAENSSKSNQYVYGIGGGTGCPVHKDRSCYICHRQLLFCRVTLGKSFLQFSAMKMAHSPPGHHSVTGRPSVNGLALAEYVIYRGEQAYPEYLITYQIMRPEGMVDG
pIC50: −log10 of the molar value.

query: Which pIC50 value belongs to `O=C(CCC1CCCCC1)Nc1nncc2ccccc12` ?
result: 5.52 to 6.52

query: Proceed to `COc1ccc(CC(=O)Nc2nncc3cccc(C)c23)cc1`
result: 5.52 to 6.52

query: Proceed to `COc1ccc(CC(=O)Nc2nncc3ccccc23)cc1`
result: 5.52 to 6.52

query: Proceed to O=C(Cc1ccccc1)Nc1nncc2ccccc12 [Compound A1, 2-phenyl-N-phthalazin-1-yl-acetamide]
result: 5.52 to 6.52

---

biological target: GST-tagged Tankyrase-2 (873-1166 aa) (Homo sapiens, UniProt Q9H2K2); construct: GST-tagged Tankyrase-2 (873-1166 aa); assay: Tankyrase 2 autoparsylation HTRF enzyme assay; type: biochemical; conditions: HTRF autoparsylation, 90 min at 30° C; read-out: IC50 TNKS2 enzyme assay
property.label: IC50

Below: 3 compounds and their reported IC50.
[[record]]
compound = "Cc1cccc2cnnc(NC(=O)Cc3ccccc3)c12 [Compound A18]"
test_system = "GST-tagged Tankyrase-2 (873-1166 aa) (Homo sapiens, UniProt Q9H2K2)"
measured_result = "0.3 to 3 µM"

[[record]]
compound = "O=C(CCc1ccccc1Cl)Nc1nncc2ccccc12 [Compound A16]"
test_system = "GST-tagged Tankyrase-2 (873-1166 aa) (Homo sapiens, UniProt Q9H2K2)"
measured_result = "< 0.3 µM"

[[record]]
compound = "O=C(CCC1CCCC1)Nc1nncc2ccccc12 [Compound A15]"
test_system = "GST-tagged Tankyrase-2 (873-1166 aa) (Homo sapiens, UniProt Q9H2K2)"
measured_result = "< 0.3 µM"


query: Which IC50 value belongs to O=C(Cc1c(Cl)cccc1Cl)Nc1nncc2ccccc12 [Compound A10] ?
result: 3 to 50 µM

query: Proceed to COc1cccc(CC(=O)Nc2nncc3ccccc23)c1 [Compound A2]
result: 0.3 to 3 µM

query: Proceed to O=C(Cc1ccc(OC(F)(F)F)cc1)Nc1nncc2ccccc12 [Compound A8]
result: 0.3 to 3 µM

---

target: GST-tagged Tankyrase-2 (873-1166 aa) (Homo sapiens, UniProt Q9H2K2); construct: GST-tagged Tankyrase-2 (873-1166 aa); assay: Tankyrase 2 autoparsylation HTRF enzyme assay; format: biochemical; conditions: HTRF autoparsylation, 90 min at 30° C; read-out: IC50 TNKS2 enzyme assay
pIC50: −log10 of the molar value.
property.label: pIC50

Below: 9 molecules and their reported pIC50.
[[record]]
molecule = "CCOc1ccc(CC(=O)Nc2nncc3ccccc23)cc1 [Compound A4]"
measured_result = "5.52 to 6.52"

[[record]]
molecule = "Cc1cccc2c(NC(=O)Cc3ccccc3)nncc12 [Compound A19]"
measured_result = "4.30 to 5.52"

[[record]]
molecule = "O=C(CCc1cccc(Cl)c1Cl)Nc1nncc2ccccc12 [Compound A17]"
measured_result = "5.52 to 6.52"

[[record]]
molecule = "CCOc1ccc(CC(=O)Nc2nncc3c(F)cccc23)cc1 [Compound A11]"
measured_result = "4.30 to 5.52"

[[record]]
molecule = "N#Cc1cccc(CC(=O)Nc2nncc3ccccc23)c1 [Compound A6]"
measured_result = "4.30 to 5.52"

[[record]]
molecule = "O=C(CCc1ccccc1)Nc1nncc2ccccc12 [Compound A14, 3-phenyl-N-phthalazin-1-yl-propionamide]"
measured_result = "5.52 to 6.52"

[[record]]
molecule = "COc1ccc(CC(=O)Nc2nncc3c(C)cccc23)cc1 [Compound A21]"
measured_result = "4.30 to 5.52"

[[record]]
molecule = "CC(C)(C)c1ccc(CC(=O)Nc2nncc3ccccc23)cc1 [Compound A9]"
measured_result = "5.52 to 6.52"

[[record]]
molecule = "COc1ccc(CC(=O)Nc2nncc3c(F)cccc23)cc1 [Compound A12]"
measured_result = "4.30 to 5.52"


query: Given the entry O=C(Cc1cccc(OC(F)(F)F)c1)Nc1nncc2ccccc12 [Compound A5] , what pIC50 was observed with GST-tagged Tankyrase-2 (873-1166 aa) (Homo sapiens, UniProt Q9H2K2)?
result: 4.30 to 5.52
